target_or_test_system: T1, human ASGR-1 (wild type) (human, UniProt P07306 1-291)
T1 construct: also called wt ASGR1; huASGR-1
T1 sequence: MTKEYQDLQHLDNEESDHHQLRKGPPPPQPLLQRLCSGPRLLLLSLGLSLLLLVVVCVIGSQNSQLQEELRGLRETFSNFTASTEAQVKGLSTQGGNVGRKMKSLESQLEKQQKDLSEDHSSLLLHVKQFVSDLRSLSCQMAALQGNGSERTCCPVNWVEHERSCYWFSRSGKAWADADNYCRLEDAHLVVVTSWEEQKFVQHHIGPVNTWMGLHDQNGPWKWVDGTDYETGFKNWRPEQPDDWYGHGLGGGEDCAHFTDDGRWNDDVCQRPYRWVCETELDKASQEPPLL
procedure_details: FACS, transfected CHO-S cells, mAb 5 ug/ml
measured_attribute: FACS Binding Geomean
When you answer, write just the number.

>>> endpoint_result("60C12 (antibody, V domains shown, mAb) VH: QVQLVESGGGVVQPGRSLRLSCAASGFTFSSYGMHWVRQAPGKGLEWVAVIWYDGSNKYYVDSVKGRFTISRDNSKNTLYLQMNSLRAEDTAVYYCARRYSRSWTGGMDVWGQGTTVTVSS VL: DIVMTQTPLSLSVTPGQPASISCKSSQSLLHSEGKTYLYWYLQKPGQPPQFLIYEVSNRFSGVPDRFSGSGSGTDFTLKISRVEAEDVGIYYCMQSIKYPLTFGGGTKVEIK")
31300

The record that follows has no FACS Binding Geomean shown yet.
Task: Return value of FACS Binding Geomean for input 191G10 (antibody, V domains shown, mAb) VH: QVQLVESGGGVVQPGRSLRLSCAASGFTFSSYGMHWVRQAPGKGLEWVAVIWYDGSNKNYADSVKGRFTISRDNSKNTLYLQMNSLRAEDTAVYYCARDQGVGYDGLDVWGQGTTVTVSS VL: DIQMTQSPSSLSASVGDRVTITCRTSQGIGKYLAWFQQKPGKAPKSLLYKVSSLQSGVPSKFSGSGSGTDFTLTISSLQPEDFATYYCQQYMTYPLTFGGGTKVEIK , no commentary.
Result: 33800

Data origin: patent US20190248902A1
